tested on: Gastric mucosa; assay: Inhibition of lipid peroxidation assessed as malondialdehyde level per 100 mg of gastric mucosa isolated from po dosed Wistar rat treated dose equivalent to 60 mg/kg equivalent to ibuprofen by UV spectrophotometry; assay type: functional
Items are presented alongside their recorded Activity.
In your response, put the unit directly after the numeric value.

Worked cases, Activity given:
COc1ccc(-c2nnc(CCC(=O)c3ccc(C)cc3C)o2)cc1 :: 3.79 nmol
O=C(CCc1nnc(-c2ccc(Cl)cc2)o1)c1ccccc1 :: 5.32 nmol
Cc1ccc(C(=O)CCc2nnc(-c3ccc([N+](=O)[O-])cc3)o2)c(C)c1 :: 4.42 nmol

For the compound shown here, COc1ccc(-c2nnc(CCC(=O)c3ccc(C)cc3C)o2)cc1OC , give the reported Activity.
5.12 nmol

Next compound up: COc1ccc(-c2nnc(CCC(=O)c3ccc(C)cc3)o2)cc1
3.15 nmol

---

tested on: Gastric mucosa; assay: Inhibition of lipid peroxidation assessed as malondialdehyde level per 100 mg of gastric mucosa isolated from po dosed Wistar rat treated dose equivalent to 60 mg/kg equivalent to ibuprofen by UV spectrophotometry; type: functional
Decide using Activity alone. Strictly below 4 nmol: Met. Equal to or above 4 nmol: Not met.

Cc1ccc(C(=O)CCc2nnc(-c3ccc(Cl)cc3)o2)c(C)c1 :: Met
O=C(CCc1nnc(-c2ccc([N+](=O)[O-])cc2)o1)c1ccccc1 :: Not met
COc1ccc(-c2nnc(CCC(=O)c3ccc(C)cc3)o2)cc1OC :: Met
Cc1ccc(C(=O)CCc2nnc(-c3ccccc3Cl)o2)c(C)c1 :: Not met

Please turn your attention to the following entry.
Quick check: Activity of Cc1ccc(C(=O)CCc2nnc(-c3ccc(Cl)cc3)o2)cc1 under 4 nmol?
Not met

---

test system: Rattus norvegicus; assay: Gastrointestinal toxicity in po dosed Wistar rat assessed ulcer index at dose equivalent to 60 mg/kg of ibuprofen after 17 hrs; assay type: organism-based; set-up: dose 60 mg/kg, route oral; details: in vivo
We use 1 as the dividing line for UI: on or above the line is 1, below is 0.

Examples with answers:
COc1ccc(-c2nnc(CCC(=O)c3ccc(C)cc3C)o2)cc1OC :: 1
COc1ccc(-c2nnc(CCC(=O)c3ccc(C)cc3)o2)cc1 :: 0
Cc1ccc(C(=O)CCc2nnc(-c3ccc([N+](=O)[O-])cc3)o2)cc1 :: 0
O=C(CCc1nnc(-c2ccc(Cl)cc2)o1)c1ccccc1 :: 1
COc1ccc(-c2nnc(CCC(=O)c3ccc(C)cc3)o2)cc1OC :: 0
Cc1ccc(C(=O)CCc2nnc(-c3ccc(Cl)cc3)o2)c(C)c1 :: 0

Reported UI reaches at least 1 for Cc1ccc(C(=O)CCc2nnc(-c3ccc([N+](=O)[O-])cc3)o2)c(C)c1 ?
0

Next compound up: COc1ccc(-c2nnc(CCC(=O)c3ccc(C)cc3C)o2)cc1
0

Next compound up: Cc1ccc(C(=O)CCc2nnc(-c3ccccc3Cl)o2)c(C)c1
0
